Measured Emax accompanies every entry in the list below.
Target: glucokinase (GK), residues 12-465 of the human enzyme (Homo sapiens, UniProt P35557)
Construct: I.D. No. 1 corresponds to residues 12-465 of glucokinase; made in house; host or cells: E. coli DH10b-Tlr
Sequence (P35557 with tags, fused parts or gaps isoform P35557-2): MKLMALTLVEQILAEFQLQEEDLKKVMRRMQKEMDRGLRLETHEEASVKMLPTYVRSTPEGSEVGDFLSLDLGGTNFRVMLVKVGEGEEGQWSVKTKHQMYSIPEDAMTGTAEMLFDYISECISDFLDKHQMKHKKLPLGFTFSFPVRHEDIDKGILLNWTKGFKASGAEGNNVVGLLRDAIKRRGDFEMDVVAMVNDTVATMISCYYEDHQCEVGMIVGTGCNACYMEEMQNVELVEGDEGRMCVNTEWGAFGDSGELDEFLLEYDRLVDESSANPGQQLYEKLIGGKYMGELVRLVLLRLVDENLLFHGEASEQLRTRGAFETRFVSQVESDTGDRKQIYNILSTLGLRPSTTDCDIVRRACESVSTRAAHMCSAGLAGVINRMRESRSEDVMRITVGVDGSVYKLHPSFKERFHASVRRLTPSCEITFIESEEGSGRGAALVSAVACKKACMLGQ
Assay: Enzymatic glucokinase activity assay (KinaseGlo luminescence, ATP consumption)
Assay type: biochemical
Settings: calculated maximal gain in GK enzyme activity at a saturating concentration of the compound; 5 μM ATP, 5 mM Glucose; read-out: % ACTmax

{"COMPOUND": "O=C(Nc1nccs1)[C@H](CC1CCCCC1)N1CCN(C(=S)NCc2ccccc2)CC1=O", "MEASURED ON": "glucokinase (GK), residues 12-465 of the human enzyme (Homo sapiens, UniProt P35557)", "Emax": "108 to 119%"}
{"COMPOUND": "O=C(Nc1nccs1)[C@H](CC1CCCCC1)N1CCN(S(=O)(=O)c2ccc(Br)cc2)CC1=O", "MEASURED ON": "glucokinase (GK), residues 12-465 of the human enzyme (Homo sapiens, UniProt P35557)", "Emax": "74.1 to 97%"}
{"COMPOUND": "Cc1nc(C)c(S(=O)(=O)N2CCN([C@@H](CC3CCCCC3)C(=O)Nc3nccs3)C(=O)C2)s1", "MEASURED ON": "glucokinase (GK), residues 12-465 of the human enzyme (Homo sapiens, UniProt P35557)", "Emax": "≥ 119%"}
{"COMPOUND": "O=C(Nc1ncc(F)s1)[C@H](CC1CCOCC1)N1CCN(S(=O)(=O)c2cccc(F)c2)CC1=O", "MEASURED ON": "glucokinase (GK), residues 12-465 of the human enzyme (Homo sapiens, UniProt P35557)", "Emax": "≥ 119%"}
{"COMPOUND": "O=C(Nc1ncc(Cl)s1)C(CC1CCOCC1)N1CCN(S(=O)(=O)c2cccc(F)c2)CC1=O (stereo not drawn)", "MEASURED ON": "glucokinase (GK), residues 12-465 of the human enzyme (Homo sapiens, UniProt P35557)", "Emax": "108 to 119%"}
{"COMPOUND": "Cc1cc(C)cc(S(=O)(=O)N2CCN([C@@H](CC3CCCCC3)C(=O)Nc3nccs3)C(=O)C2)c1", "MEASURED ON": "glucokinase (GK), residues 12-465 of the human enzyme (Homo sapiens, UniProt P35557)", "Emax": "≥ 119%"}
